Study target: CmrR (Clostridioides difficile R20291) (UniProt A0A9R0CG09)
Sequence: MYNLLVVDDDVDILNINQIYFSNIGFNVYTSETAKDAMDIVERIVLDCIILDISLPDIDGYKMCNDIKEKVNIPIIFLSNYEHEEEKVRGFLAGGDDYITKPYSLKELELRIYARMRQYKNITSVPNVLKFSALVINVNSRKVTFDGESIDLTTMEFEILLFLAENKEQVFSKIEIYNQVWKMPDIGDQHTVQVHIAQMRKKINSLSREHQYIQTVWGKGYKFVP
Experiment notes: EMSA
Particulars: EMSA: 15 nM probe, 1x binding buffer 20 mM Tris pH 8, 1 mM EDTA, 10 mM MgCl2, 100 mM NaCl, 5% glycerol, plus half volume protein in His6 buffer (10 mM Tris …)
Property name: binding

| Input sequence | Value |
| --- | --- |
| GCCAAAATTTCACCTATCAATAAAAATCTTAACGACTAATACTCTTATTTTCAAATTTTGCAACATTTTTGTTAATTTTAAAGCAAAAAAAGACTATGCAATATAAAAATTATATTCATAGCCGGTTGCACCACTAACTCCATATATCTCC (double strand) [probe 2] | no binding |
| TTGCACCACTAACTCCATATATCTCCAGATGCCCAATAATAAGATATACTTCTCAGTTTCTAAAATATTTTTATTAAAAATCTTTTATATATTTTCATAAATTTCTTTTTTATTCTAACATTGTAATATTATTTTGTCAATATTTCCATATTTTTAGATATAAGATACTAAAATACCTATTTTATCTAAAGATATTTATATTTCTACATTCAATAATAGACAATACCCTGCAAGTTAAAGCATC (double strand) [probe 1 (upstream of TSS1)] | no binding |
